B1: TMEM106C (parent)
chain: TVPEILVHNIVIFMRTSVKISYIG

Variants of: B1
Assay remarks: protein stability index of a GFP-peptide fusion (GPS, HEK-293T) (PSI 1-6); higher = more stable;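 further: lentivirally expressed fusions sorted by FACS into six bins by GFP to DsRed ratio, PSI derived from sequencing read proportions per bin multiplied by bin number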
Run conditions: c terminus: a fixed tail appended
Measurement type: protein stability index

mutant_label=R15P measurement_type="protein stability index" val=2.47
mutant_label=K19D measurement_type="protein stability index" val=3.61
mutant_label=L6K measurement_type="protein stability index" val=2.5
mutant_label=V11P measurement_type="protein stability index" val=2.92
mutant_label=V11Q measurement_type="protein stability index" val=1.83
mutant_label=K19I measurement_type="protein stability index" val=3.18
mutant_label=I10K measurement_type="protein stability index" val=4.3
mutant_label=V7P measurement_type="protein stability index" val=3.59
mutant_label=I12F measurement_type="protein stability index" val=2.8
mutant_label=S21H measurement_type="protein stability index" val=2.81
mutant_label=Y22I measurement_type="protein stability index" val=4.35
mutant_label=P3L measurement_type="protein stability index" val=1.85
mutant_label=M14N measurement_type="protein stability index" val=3.25
mutant_label=S17Q measurement_type="protein stability index" val=3.81
mutant_label=I20C measurement_type="protein stability index" val=3.79
mutant_label=N9A measurement_type="protein stability index" val=2.89
mutant_label=T1I measurement_type="protein stability index" val=4.36
mutant_label=F13M measurement_type="protein stability index" val=2.42
mutant_label=I23A measurement_type="protein stability index" val=3.15
mutant_label=I23S measurement_type="protein stability index" val=3.05
mutant_label=E4Y measurement_type="protein stability index" val=2.81
mutant_label=I23T measurement_type="protein stability index" val=3.01
mutant_label=P3K measurement_type="protein stability index" val=3.27
mutant_label=G24C measurement_type="protein stability index" val=2.8
mutant_label=I20S measurement_type="protein stability index" val=3.33
mutant_label=L6W measurement_type="protein stability index" val=2.8
mutant_label=N9G measurement_type="protein stability index" val=2.98
mutant_label=I20F measurement_type="protein stability index" val=3.1
mutant_label=V2W measurement_type="protein stability index" val=2
mutant_label=V7N measurement_type="protein stability index" val=2.83
mutant_label=T1W measurement_type="protein stability index" val=2.7
mutant_label=V7L measurement_type="protein stability index" val=2.24
mutant_label=F13H measurement_type="protein stability index" val=2.11
mutant_label=F13R measurement_type="protein stability index" val=2.3
mutant_label=N9H measurement_type="protein stability index" val=2.15
mutant_label=I20L measurement_type="protein stability index" val=3.56
mutant_label=N9V measurement_type="protein stability index" val=2.49
mutant_label=R15D measurement_type="protein stability index" val=2.57
mutant_label=L6P measurement_type="protein stability index" val=2.63
mutant_label=I10P measurement_type="protein stability index" val=2.49
mutant_label=I12G measurement_type="protein stability index" val=3.97
mutant_label=G24Y measurement_type="protein stability index" val=2.61
mutant_label=R15I measurement_type="protein stability index" val=4.22
mutant_label=V7C measurement_type="protein stability index" val=3.89
mutant_label=P3H measurement_type="protein stability index" val=2.52
mutant_label=Y22G measurement_type="protein stability index" val=2.47
